# Assay Details: 75Q-TubH aggregate inhibition, S. cerevisiae, yeast (AID 1616)
# Settings: S. cerevisiae 75Q-TubH polyglutamine aggregation suppression; stronger effect = higher value
Measured Quantity: aggregation suppression score

[[record]]
molecule = "C=CCc1ccccc1OCC(O)CNC(C)C (centres undefined)"
measurement = 1.42

[[record]]
molecule = "CCCC(C(=O)OCCN(CC)CC)(c1ccccc1)c1ccccc1"
measurement = 1.25

[[record]]
molecule = "CCO/C([O-])=N/c1c[n+](N2CCOCC2)no1"
measurement = 1.23

[[record]]
molecule = "CC(=O)NCCCCCC(=O)O"
measurement = 1.24

[[record]]
molecule = "NC(=O)N/N=C/c1ccc([N+](=O)[O-])o1"
measurement = 0.831

[[record]]
molecule = "Nc1ccc(S(N)(=O)=O)cc1"
measurement = 1.25

[[record]]
molecule = "Cc1oncc1C(=O)Nc1ccc(C(F)(F)F)cc1"
measurement = 0.133

[[record]]
molecule = "CCCCCC(C)N (centres undefined)"
measurement = 0.962


Q. Suppose we examine the molecule NS(=O)(=O)c1cc2c(cc1Cl)NC(C(Cl)Cl)NS2(=O)=O (centres undefined) ; what aggregation suppression score value has been reported?
A. 1.17

###

# key: entry, value: viability decrease
# Assay Details: growth inhibition of GSK3B-pretreated HCT116 cells – cell-based, CellTiter-Glo, 0.2 to 20 µM (AID 1117336)
# Settings: HCT116 viability after GSK3B inhibitor, at 20 µM, stronger effect = higher value
Answer format: numeric, % implied, no suffix.

[[record]]
substance_smiles = "NC(N)=NC(=O)Cc1c(Cl)cccc1Cl"
measured_quantity = "viability decrease"
measurement = 16.7

[[record]]
substance_smiles = "CC1(C)NC(=O)N(c2ccc([N+](=O)[O-])c(C(F)(F)F)c2)C1=O"
measured_quantity = "viability decrease"
measurement = -16.7

[[record]]
substance_smiles = "CC[N+](CC)(CC)CCOc1cccc(OCC[N+](CC)(CC)CC)c1OCC[N+](CC)(CC)CC"
measured_quantity = "viability decrease"
measurement = -8.1

[[record]]
substance_smiles = "NCCCCCC(=O)O"
measured_quantity = "viability decrease"
measurement = -23

[[record]]
substance_smiles = "CC1(C)O[C@@H]2C[C@H]3[C@@H]4C[C@H](F)C5=CC(=O)C=C[C@]5(C)[C@@]4(F)[C@@H](O)C[C@]3(C)[C@]2(C(=O)CO)O1"
measured_quantity = "viability decrease"
measurement = -12.2


Please examine the following record next.
Q. Suppose we examine the compound OC[C@H]1O[C@@H](O[C@@H]2[C@@H](CO)O[C@](O)(CO)[C@H]2O)[C@H](O)[C@@H](O)[C@H]1O ; what viability decrease value has been reported?
A. -11.1

###

# key: entry, value: log fold change Tl+ flux
# Test system: F380Y
# Assay Details: BK channel mutant inhibitors and activators – cell-based, U2OS BacMam, thallium flux, beta subunits, selectivity assay, profiling panel (AID 1259406);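 also: initial slope of Thallos dye fluorescence rise after thallium is added; log ratio against the mean of 0.3% DMSO vehicle wells on the same plate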
# Settings: U2OS BacMam BK variants, at 30 µM
Keep it simple and answer with nothing but the number.

Reference set (8 entries):
[[record]]
compound = "O=C1c2cccc3c2[C@H](CCC3)CN1[C@@H]1CN2CCC1CC2"
measurement = 0.0472

[[record]]
compound = "CN1CCN(c2c(F)cc3c(=O)c(C(=O)O)cn4c3c2SCC4)CC1"
measurement = 0.0311

[[record]]
compound = "CC(C)(C(=O)c1cccnc1)c1cccnc1"
measurement = -0.0599

[[record]]
compound = "O=C(NCCO[N+](=O)[O-])c1cccnc1"
measurement = 0.0612

[[record]]
compound = "CC1(C)S[C@@H]2[C@H](N=CN3CCCCCC3)C(=O)N2[C@H]1C(=O)O"
measurement = 0.00482

[[record]]
compound = "CCN(CC)CCNC(=O)c1cc(Cl)c(N)cc1OC"
measurement = -0.00476

[[record]]
compound = "O=c1[nH]cnc2c1ncn2[C@H]1CC[C@@H](CO)O1"
measurement = -0.00984

[[record]]
compound = "Cc1[nH]cnc1CN1CCc2c(c3ccccc3n2C)C1=O"
measurement = 0.0315


Q. Suppose we examine the compound Nc1nc(F)nc2c1ncn2[C@@H]1O[C@H](CO)[C@@H](O)[C@@H]1O ; what log fold change Tl+ flux value has been reported?
A. 0.0242

Q. Suppose we examine the compound COC(=O)C1=C(C)NC(C)=C(C(=O)OC(C)C)C1c1cccc2nonc12 (stereo not drawn) ; what log fold change Tl+ flux value has been reported?
A. 0.00609

Q. Suppose we examine the compound CN(C)CC[C@@H](c1ccc(Br)cc1)c1ccccn1 ; what log fold change Tl+ flux value has been reported?
A. 0.102

Q. Suppose we examine the compound CNNCc1ccc(C(=O)NC(C)C)cc1 ; what log fold change Tl+ flux value has been reported?
A. -0.0305

Q. Suppose we examine the compound O=C1Nc2ccc(Cl)cc2[C@@](C#CC2CC2)(C(F)(F)F)O1 ; what log fold change Tl+ flux value has been reported?
A. 0.0449

Q. Suppose we examine the compound Brc1c(NC2=NCCN2)ccc2nccnc12 ; what log fold change Tl+ flux value has been reported?
A. -0.0564

###

# Assay Details: restoration of touch response, mutant HTT neurons – whole organism, C. elegans mechanosensory neurons, N-terminal huntingtin (AID 1599)
# Settings: C. elegans polyQ-huntingtin mechanosensory neurons, stronger effect = higher value
Entries with a potency or affinity are not part of this list.
Measured Quantity: rescue above control
Keep it simple and answer with nothing but the number.

[[record]]
compound = "COC(=O)[C@H]1[C@H]2C[C@@H]3c4[nH]c5cc(OC)ccc5c4CCN3C[C@H]2C[C@@H](OC(=O)c2cc(OC)c(OC)c(OC)c2)[C@@H]1OC"
measurement = -12.7

[[record]]
compound = "CCCCCCOc1ccccc1C(N)=O"
measurement = -0.6


Please examine the following record next.
Q. Suppose we examine the compound Oc1cccc(O)c1 ; what rescue above control value has been reported?
A. 3.39

###

# Assay Details: drug combination growth inhibition, ovarian cancer – cell-based, oncology-focused library, rucaparib conditional, profiling panel (AID 1508598)
# Settings: patient-derived ovarian cancer cells, CellTiter-Glo viability, 144 h; at 5 µM; OCI-P5x cells; with rucaparib 20 µM; stronger effect = lower value; 100% = cells with rucaparib alone
The source made the active and inactive calls.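 How the source made its calls: active means normalized viability below 100% at a tested concentration; inactive means the rest.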
Measured Quantity: viability

Reference set (3 entries):
[[record]]
substance_smiles = "NC(=O)NO"
measurement = "109% (inactive)"

[[record]]
substance_smiles = "CC(C)(C#N)c1cc(Cn2cncn2)cc(C(C)(C)C#N)c1"
measurement = "115% (inactive)"

[[record]]
substance_smiles = "CCc1c2c(nc3ccc(OC(=O)N4CCC(N5CCCCC5)CC4)cc13)-c1cc3c(c(=O)n1C2)COC(=O)[C@]3(O)CC"
measurement = "34.4% (active)"


Please examine the following record next.
Q. Suppose we examine the molecule CC[C@@]1(O)C(=O)OCc2c1cc1n(c2=O)Cc2cc3c(CN(C)C)c(O)ccc3nc2-1 ; what viability value has been reported?
A. 5.99% (active)

###

# Measured Target: Mitogen-activated protein kinase 7 (Homo sapiens)
# Assay Details: Gal4-ERK5 driven luciferase induction – cell-based, HTS, primary screen (AID 1508626);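 also: luciferase driven by Gal4-ERK5 fusion binding five Gal4 sites before minimal TATA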
# Settings: HeLa Gal4-ERK5 transactivation, 18 h, at 5 µM, stronger effect = higher value
Calls of active or inactive are those of the source.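 The calls were made as follows: active = luciferase signal above three times the same-plate solvent-only control wells; inactive = the rest.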
# key: entry, value: luciferase signal

Reference set (3 entries):
[[record]]
molecule = "Cc1cc(O)cc(C)c1Cl"
measurement = "32 AU (inactive)"

[[record]]
molecule = "Cc1c(Nc2ncccc2C(=O)O)cccc1C(F)(F)F"
measurement = "44 AU (inactive)"

[[record]]
molecule = "CC(=O)O[C@H]1C[C@@H]2CC[C@@H]3[C@H](CC[C@@]4(C)[C@H]3C[C@H]([N+]3(C)CCCCC3)[C@@H]4OC(C)=O)[C@@]2(C)C[C@@H]1N1CCCCC1"
measurement = "52 AU (inactive)"


Q. Can you look up luciferase signal on Mitogen-activated protein kinase 7 (Homo sapiens) for COc1ccc2[nH]cc(CCNC(C)=O)c2c1 ?
A. 68 AU (inactive)

Q. Can you look up luciferase signal on Mitogen-activated protein kinase 7 (Homo sapiens) for CC(N)CCCC(C)(C)O (stereo unspecified) ?
A. 160 AU (inactive)

Q. Can you look up luciferase signal on Mitogen-activated protein kinase 7 (Homo sapiens) for Cc1ccnc(NS(=O)(=O)c2ccc(N)cc2)n1 ?
A. 68 AU (inactive)

Q. Can you look up luciferase signal on Mitogen-activated protein kinase 7 (Homo sapiens) for CN1CCCN=C1COC(=O)C(O)(c1ccccc1)C1CCCCC1 (stereo unspecified) ?
A. 80 AU (inactive)

Q. Can you look up luciferase signal on Mitogen-activated protein kinase 7 (Homo sapiens) for C=C[C@@]1(C)CC(=O)[C@]2(O)[C@@]3(C)[C@@H](O)CCC(C)(C)[C@@H]3[C@H](O)[C@H](OC(C)=O)[C@@]2(C)O1 ?
A. 44 AU (inactive)
